Test system: rat
Assay: Diuretic, natriuretic and kaliuretic action, Experimental Design 2 (anesthetized rats, stepwise halved NaCl infusion, i.v. bolus)
Format: in vivo
Reported Conditions: dose 1 mg/kg rat i.v. bolus, collection period 120 min, control 31.5
[ ]: non-standard residue; d: D form. The star is where a group is joined. code Z = not defined here; OBn = c1ccc(CO*)cc1
What Na^+ was measured for each of the following?

Which measured Na^+ value corresponds to Z-D-Arg-Ile-Leu-Arg-Ile-OBzl ({code Z}-[dR]ILRI-OBn; reading uncertain; also: printed as Z-D-Arg-Ile-Leu-Arg-Ile-OBzl) ?
86.3 µmol/kg

And what about the substance H-RLQRL-OH [H-Arg-Leu-Gln-Arg-Leu-OH, H-Arg-Leu-Gln-Arg-Leu--OH] ?
30.2 µmol/kg

And what about the substance H-KFLKF-NH2 [H-Lys-Phe-Leu-Lys-Phe-NH2] ?
36.8 µmol/kg

And what about the substance H-KFLKF-OH [H-Lys-Phe-Leu-Lys-Phe-OH] ?
80.2 µmol/kg

====

System: rat
Assay: Diuretic, natriuretic and kaliuretic action, Experimental Design 2 (anesthetized rats, stepwise halved NaCl infusion, i.v. bolus)
Type: in vivo
Reported Conditions: dose 1 mg/kg rat i.v. bolus, collection period 120 min, control 0.520
[ ]: non-standard residue; d: D form. The star is where a group is joined. code Z = not defined here; OBn = c1ccc(CO*)cc1
Measure Name: Urine (mL/kg)
Numbers only; they are read as mL/kg.

Which measured Urine value corresponds to H-KFLKF-OH [H-Lys-Phe-Leu-Lys-Phe-OH] ?
0.52

And what about the substance Z-D-Arg-Ile-Leu-Arg-Ile-OBzl ({code Z}-[dR]ILRI-OBn; reading uncertain; also: printed as Z-D-Arg-Ile-Leu-Arg-Ile-OBzl) ?
0.59

And what about the substance H-KFLKF-NH2 [H-Lys-Phe-Leu-Lys-Phe-NH2] ?
0.25

And what about the substance H-RLQRL-OH [H-Arg-Leu-Gln-Arg-Leu-OH, H-Arg-Leu-Gln-Arg-Leu--OH] ?
0.25
